- measured_on: Prostaglandin D2 receptor 2 (Mus musculus, UniProt Q9Z2J6)
- Sequence (Q9Z2J6 whole entry): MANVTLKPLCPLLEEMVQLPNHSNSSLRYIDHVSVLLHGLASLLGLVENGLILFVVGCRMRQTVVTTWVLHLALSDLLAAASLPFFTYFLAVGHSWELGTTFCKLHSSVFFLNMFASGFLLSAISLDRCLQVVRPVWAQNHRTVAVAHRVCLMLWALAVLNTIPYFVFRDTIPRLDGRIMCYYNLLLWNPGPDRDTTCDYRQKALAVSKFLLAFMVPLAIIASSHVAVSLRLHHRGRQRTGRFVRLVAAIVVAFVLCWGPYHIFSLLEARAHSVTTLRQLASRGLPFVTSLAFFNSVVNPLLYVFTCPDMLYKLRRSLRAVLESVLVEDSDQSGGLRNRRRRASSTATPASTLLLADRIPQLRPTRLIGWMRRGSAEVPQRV
- protocol_text: Displacement of [3H]-prostaglandin D2 from mouse CRTh2 receptor expressed in CHO cells after 2 hrs
observable: Ki
Please give the number followed by its unit.

Exercise: Could you tell me which Ki is on file for Cc1c(CC(=O)O)c2cccnc2n1Cc1ccc(S(C)(=O)=O)cc1 [QAV680] ?
Solution: 10 nM

* * *

- measured_on: Prostaglandin D2 receptor 2 (Homo sapiens, UniProt Q9Y5Y4)
- Sequence (Q9Y5Y4 whole entry): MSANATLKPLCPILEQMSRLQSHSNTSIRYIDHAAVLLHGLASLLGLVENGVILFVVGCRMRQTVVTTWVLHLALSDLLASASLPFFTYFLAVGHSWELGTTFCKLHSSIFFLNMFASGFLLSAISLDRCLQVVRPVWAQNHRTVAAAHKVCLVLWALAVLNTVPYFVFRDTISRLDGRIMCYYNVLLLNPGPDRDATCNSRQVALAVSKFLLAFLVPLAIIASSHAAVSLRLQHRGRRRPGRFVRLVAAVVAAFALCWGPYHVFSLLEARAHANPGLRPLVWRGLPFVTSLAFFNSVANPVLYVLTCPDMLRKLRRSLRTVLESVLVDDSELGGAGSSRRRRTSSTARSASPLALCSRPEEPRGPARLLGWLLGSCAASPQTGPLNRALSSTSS
- protocol_text: Displacement of [3H]-prostaglandin D2 from human CRTh2 receptor expressed in CHO cells after 2 hrs
Ki listing for selected compounds.
Please give the number followed by its unit.

Completed entries (count: 2):
Exercise: Prostaglandin D2 receptor 2 (Homo sapiens, UniProt Q9Y5Y4) / Ki / Cc1c(CC(=O)O)c2cccnc2n1Cc1ccc(S(C)(=O)=O)cc1 : value?
Solution: 0.036 µM

Exercise: Prostaglandin D2 receptor 2 (Homo sapiens, UniProt Q9Y5Y4) / Ki / Cc1c(CC(=O)O)c2cccnc2n1Cc1cccnc1 : value?
Solution: 1.06 µM

// next item, Ki requested
Exercise: Prostaglandin D2 receptor 2 (Homo sapiens, UniProt Q9Y5Y4) / Ki / Cc1c(CC(=O)O)c2cccnc2n1Cc1ccncc1 : value?
Solution: 2.23 µM

* * *

- measured_on: UniProt P43119
- Sequence (P43119 whole entry): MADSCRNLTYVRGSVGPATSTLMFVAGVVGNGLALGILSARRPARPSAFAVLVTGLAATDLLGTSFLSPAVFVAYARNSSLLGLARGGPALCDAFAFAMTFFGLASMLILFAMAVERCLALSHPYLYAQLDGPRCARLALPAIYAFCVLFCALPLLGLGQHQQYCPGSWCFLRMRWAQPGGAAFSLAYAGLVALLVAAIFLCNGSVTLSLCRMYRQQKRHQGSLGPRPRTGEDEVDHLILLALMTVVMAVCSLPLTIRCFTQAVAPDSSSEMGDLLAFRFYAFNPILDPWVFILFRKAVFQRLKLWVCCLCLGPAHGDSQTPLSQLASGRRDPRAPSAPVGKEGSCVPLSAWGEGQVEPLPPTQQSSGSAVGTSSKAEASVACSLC
pIC50: −log10 of the molar value.
observable: pIC50

Exercise: UniProt P43119 / pIC50 / Cc1c(CC(=O)O)c2cccnc2n1Cc1ccc(S(C)(=O)=O)cc1 [QAV680] : value?
Solution: < 5.00

* * *

- protocol_text: Oral bioavailability in Wistar rat at 3 mg/kg
- Type: ADME, organism-based
- experimental_conditions: in vivo
observable: bioavailability
Please give the number followed by its unit.

Exercise: Could you tell me which bioavailability is on file for Cc1c(CC(=O)O)c2cccnc2n1Cc1ccc(S(C)(=O)=O)cc1 ?
Solution: 54%

* * *

- protocol_text: AUC (0 to 48 hrs) in Wistar rat at 3 mg/kg, po
- Format: ADME, organism-based
- Design: time < 48 hr, dose 3 mg/kg, route oral
- experimental_conditions: plasma
observable: AUC(0-t) at 48 h

Exercise: Could you tell me which AUC(0-t) at 48 h is on file for Cc1c(CC(=O)O)c2cccnc2n1Cc1ccc(S(C)(=O)=O)cc1 ?
Solution: 6.06 µM·h

* * *

- measured_on: Prostaglandin D2 receptor 2 (Homo sapiens) (UniProt Q9Y5Y4)
- protocol_text: Antagonist activity at human CRTh2 receptor expressed in CHO cells assessed as inhibition of prostaglandin D2 and forskolin-induced cAMP accumulation after 45 mins in presence of 0.1% HSA
- Format: functional, cell-based
We use 3 as the dividing line for fold change (FC): on or above the line is Met, below is Not met.

Exercise: For this molecule, is measured fold change (FC) 3 or higher? Cc1c(CC(=O)O)c2cccnc2n1Cc1ccc(C#N)cc1
Solution: Met

--- query ---
Exercise: For this molecule, is measured fold change (FC) 3 or higher? Cc1c(CC(=O)O)c2cccnc2n1S(=O)(=O)c1ccc(F)c(F)c1
Solution: Not met

* * *

- measured_on: Prostaglandin D2 receptor 2 (Mus musculus)
- protocol_text: Antagonist activity at mouse CRTh2 receptor expressed in CHO-K1 cells assessed as inhibition of […]-GTP-gamma-S binding after 50 mins by liquid scintillation counting
observable: IC50
Please give the number followed by its unit.

Exercise: Could you tell me which IC50 is on file for Cc1c(CC(=O)O)c2cccnc2n1Cc1ccc(S(C)(=O)=O)cc1 ?
Solution: 94 nM

* * *

- measured_on: UniProt P11712
- Sequence (P11712 whole entry): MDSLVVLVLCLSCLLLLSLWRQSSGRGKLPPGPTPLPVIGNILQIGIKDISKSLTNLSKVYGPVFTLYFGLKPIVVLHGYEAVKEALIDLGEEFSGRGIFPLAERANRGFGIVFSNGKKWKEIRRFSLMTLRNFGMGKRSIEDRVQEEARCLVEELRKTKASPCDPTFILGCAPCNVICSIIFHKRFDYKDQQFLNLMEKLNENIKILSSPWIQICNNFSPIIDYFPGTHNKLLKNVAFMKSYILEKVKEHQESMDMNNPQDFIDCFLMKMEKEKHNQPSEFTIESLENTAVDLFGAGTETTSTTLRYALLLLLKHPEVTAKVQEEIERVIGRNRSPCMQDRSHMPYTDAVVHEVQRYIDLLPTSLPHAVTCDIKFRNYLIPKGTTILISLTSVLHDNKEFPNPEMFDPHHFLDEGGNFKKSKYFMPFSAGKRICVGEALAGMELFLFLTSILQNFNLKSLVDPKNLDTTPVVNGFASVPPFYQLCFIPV
pIC50: −log10 of the molar value.
observable: pIC50

Exercise: UniProt P11712 / pIC50 / Cc1c(CC(=O)O)c2cccnc2n1Cc1ccc(S(C)(=O)=O)cc1 : value?
Solution: < 4.00

* * *

- protocol_text: Tmax in Wistar rat at 3 mg/kg, po
- Type: ADME, organism-based
- Design: dose 3 mg/kg, route oral
- experimental_conditions: in vivo
observable: Tmax (min)
Give just the numeric value; min need not be written.

Exercise: Could you tell me which Tmax is on file for Cc1c(CC(=O)O)c2cccnc2n1Cc1ccc(S(C)(=O)=O)cc1 ?
Solution: 39.6

* * *

- measured_on: Prostaglandin D2 receptor (Homo sapiens, UniProt Q13258)
- Sequence (Q13258 whole entry): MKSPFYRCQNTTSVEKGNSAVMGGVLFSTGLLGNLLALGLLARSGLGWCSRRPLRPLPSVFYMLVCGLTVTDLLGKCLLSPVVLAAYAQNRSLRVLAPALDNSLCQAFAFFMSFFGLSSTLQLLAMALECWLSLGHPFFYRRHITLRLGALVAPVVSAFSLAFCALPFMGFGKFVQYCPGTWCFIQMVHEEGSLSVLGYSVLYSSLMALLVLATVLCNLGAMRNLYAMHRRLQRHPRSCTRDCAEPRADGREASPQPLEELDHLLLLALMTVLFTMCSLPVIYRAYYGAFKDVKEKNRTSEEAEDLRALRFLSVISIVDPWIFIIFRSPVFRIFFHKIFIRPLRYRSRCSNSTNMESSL
- protocol_text: Inhibition of prostanoid DP1 receptor (unknown origin)
observable: IC50

Exercise: Could you tell me which IC50 is on file for Cc1c(CC(=O)O)c2cccnc2n1Cc1ccc(S(C)(=O)=O)cc1 [QAV680] ?
Solution: > 10 µM

* * *

- protocol_text: Cmax in Wistar rat at 3 mg/kg, po
- Format: ADME, organism-based
- Parameters: dose 3 mg/kg, route oral
- experimental_conditions: in vivo
observable: Cmax (nM)
Give just the numeric value; nM need not be written.

Exercise: Could you tell me which Cmax is on file for Cc1c(CC(=O)O)c2cccnc2n1Cc1ccc(S(C)(=O)=O)cc1 ?
Solution: 2600

* * *

- protocol_text: Antagonist activity at CRTh2 receptor in human isolated eosinophil assessed as inhibition of DK-PGD2-induced shape change after 5 mins by flow cytometry
observable: IC50 (nM)
Give just the numeric value; nM need not be written.

Exercise: Could you tell me which IC50 is on file for Cc1c(CC(=O)O)c2cccnc2n1S(=O)(=O)c1ccc(Cl)cc1 ?
Solution: 108

* * *

- protocol_text: Clearance in Wistar rat at 0.5 mg/kg, iv
- Type: ADME, organism-based
- Set-up: dose 0.5 mg/kg, route intravenous
- experimental_conditions: in vivo
observable: clearance

Exercise: Could you tell me which clearance is on file for Cc1c(CC(=O)O)c2cccnc2n1Cc1ccc(S(C)(=O)=O)cc1 ?
Solution: 15.2 mL/min/kg

* * *

- measured_on: Cytochrome P450 3A4 (Homo sapiens)
- Sequence (P08684 whole entry): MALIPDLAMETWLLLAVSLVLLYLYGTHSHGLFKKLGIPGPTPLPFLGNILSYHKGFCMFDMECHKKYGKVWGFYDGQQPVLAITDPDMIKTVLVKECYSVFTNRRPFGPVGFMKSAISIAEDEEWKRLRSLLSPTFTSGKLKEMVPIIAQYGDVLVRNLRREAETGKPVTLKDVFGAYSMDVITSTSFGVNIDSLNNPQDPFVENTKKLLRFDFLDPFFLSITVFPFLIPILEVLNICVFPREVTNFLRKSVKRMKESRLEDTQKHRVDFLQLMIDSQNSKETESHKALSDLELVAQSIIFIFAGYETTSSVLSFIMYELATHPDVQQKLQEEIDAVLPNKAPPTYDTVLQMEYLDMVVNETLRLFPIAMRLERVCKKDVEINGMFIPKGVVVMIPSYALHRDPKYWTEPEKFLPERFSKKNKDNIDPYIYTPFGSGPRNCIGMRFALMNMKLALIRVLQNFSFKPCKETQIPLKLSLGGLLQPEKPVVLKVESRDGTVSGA
observable: IC50

Exercise: Cytochrome P450 3A4 (Homo sapiens) / IC50 / Cc1c(CC(=O)O)c2cccnc2n1Cc1ccc(S(C)(=O)=O)cc1 : value?
Solution: > 100 µM

* * *

- measured_on: Prostaglandin F2-alpha receptor (Homo sapiens)
- Sequence (P43088 whole entry): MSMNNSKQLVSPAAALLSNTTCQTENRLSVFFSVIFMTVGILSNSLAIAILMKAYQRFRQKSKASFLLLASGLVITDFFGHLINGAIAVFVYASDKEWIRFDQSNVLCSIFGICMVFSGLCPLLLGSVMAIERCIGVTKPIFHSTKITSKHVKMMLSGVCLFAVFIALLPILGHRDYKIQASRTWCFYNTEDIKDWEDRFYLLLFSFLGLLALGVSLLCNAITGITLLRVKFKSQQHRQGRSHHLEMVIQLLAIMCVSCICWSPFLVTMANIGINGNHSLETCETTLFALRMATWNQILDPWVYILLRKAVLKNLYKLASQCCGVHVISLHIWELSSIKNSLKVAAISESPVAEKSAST
- protocol_text: Inhibition of prostanoid FP receptor (unknown origin)
observable: IC50

Exercise: Could you tell me which IC50 is on file for Cc1c(CC(=O)O)c2cccnc2n1Cc1ccc(S(C)(=O)=O)cc1 ?
Solution: > 10 µM

* * *

- protocol_text: Apparent permeability from basolateral to apical side in human Caco2 cells
- Type: ADME, cell-based
- experimental_conditions: Caco-2
observable: Papp B→A
Please give the number followed by its unit.

Exercise: Could you tell me which Papp B→A is on file for Cc1c(CC(=O)O)c2cccnc2n1Cc1ccc(S(C)(=O)=O)cc1 ?
Solution: 2.2 ×10⁻⁶ cm/s

* * *

IC50 listing for selected compounds.
- measured_on: Prostaglandin D2 receptor 2 (Homo sapiens)
- protocol_text: Antagonist activity at human CRTh2 receptor expressed in CHO cells assessed as inhibition of prostaglandin D2 and forskolin-induced cAMP accumulation after 45 mins

Exercise: Could you tell me which IC50 is on file for Cc1c(CC(=O)O)c2cccnc2n1Cc1ccc(Cl)cc1 ?
Solution: 484 nM

Exercise: Could you tell me which IC50 is on file for Cc1c(CC(=O)O)c2cccnc2n1S(=O)(=O)c1ccc(Cl)cc1 ?
Solution: 565 nM

Exercise: Could you tell me which IC50 is on file for Cc1c(CC(=O)O)c2cccnc2n1Cc1ccc(S(C)(=O)=O)cc1 ?
Solution: 37 nM

Exercise: Could you tell me which IC50 is on file for Cc1c(CC(=O)O)c2cccnc2n1Cc1ccc(C#N)cc1 ?
Solution: 554 nM

Exercise: Could you tell me which IC50 is on file for Cc1c(CC(=O)O)c2cccnc2n1Cc1ccc([S+](C)[O-])cc1 (racemic) ?
Solution: 233 nM

More entries:
Exercise: Could you tell me which IC50 is on file for Cc1c(CC(=O)O)c2cccnc2n1Cc1ccc(S(=O)(=O)C(F)(F)F)cc1 ?
Solution: 147 nM

* * *

- protocol_text: Cmax in Wistar rat at 100 mg/kg, po
- Format: ADME, organism-based
- Design: dose 100 mg/kg, route oral
- experimental_conditions: in vivo
observable: Cmax (µM)
Give just the numeric value; µM need not be written.

Exercise: Could you tell me which Cmax is on file for Cc1c(CC(=O)O)c2cccnc2n1Cc1ccc(S(C)(=O)=O)cc1 ?
Solution: 42.7
